- Tested on: L1236 cells
- test-name: Proliferation assay, L1236 Hodgkin Lymphoma cells (CellTiter Glo)
- Assay type: cell-based
- condition-context: L-1236; L1236, MTAP status wt, MTAP mRNA level low; average values from two or more experiments; read-out: IC50, proliferation
property: IC50 (nM)

I. CC(=O)N1CCC(Nc2cc(C(=O)NC[C@H](O)CN3CCc4ccccc4C3)ncn2)CC1 [Compound B, reference compound]
II. Nc1nc2cc(CN3C(=O)c4cc(F)ccc4[C@]34CCN(Cc3ccc(F)cc3)C4=O)[nH]c2cc1F
Query: Endpoint returns the identifier whose IC50 is numerically larger, either I or II . Answer = label.
Reply: II
(II: 67 nM, I: 14 nM)

Provenance of the data: patent US20260048040A1
